All figures here come from patent US20260078119A1.

Exercise: state measured DC50 for each of the molecules provided.
- Measurement Target: FAK (Homo sapiens)
- Construct: homozygous knock-in of a HiBiT tag (Promega Corporation, Madison, WI) to the C-terminus of the FAK gene in its natural genomic locus; endogenous in cells; host or cells: JHH-4-FAK-HiBiT clone d01 (CRISPR-Cas9 knock-in at the endogenous locus)
- Sequence (Q05397 whole entry): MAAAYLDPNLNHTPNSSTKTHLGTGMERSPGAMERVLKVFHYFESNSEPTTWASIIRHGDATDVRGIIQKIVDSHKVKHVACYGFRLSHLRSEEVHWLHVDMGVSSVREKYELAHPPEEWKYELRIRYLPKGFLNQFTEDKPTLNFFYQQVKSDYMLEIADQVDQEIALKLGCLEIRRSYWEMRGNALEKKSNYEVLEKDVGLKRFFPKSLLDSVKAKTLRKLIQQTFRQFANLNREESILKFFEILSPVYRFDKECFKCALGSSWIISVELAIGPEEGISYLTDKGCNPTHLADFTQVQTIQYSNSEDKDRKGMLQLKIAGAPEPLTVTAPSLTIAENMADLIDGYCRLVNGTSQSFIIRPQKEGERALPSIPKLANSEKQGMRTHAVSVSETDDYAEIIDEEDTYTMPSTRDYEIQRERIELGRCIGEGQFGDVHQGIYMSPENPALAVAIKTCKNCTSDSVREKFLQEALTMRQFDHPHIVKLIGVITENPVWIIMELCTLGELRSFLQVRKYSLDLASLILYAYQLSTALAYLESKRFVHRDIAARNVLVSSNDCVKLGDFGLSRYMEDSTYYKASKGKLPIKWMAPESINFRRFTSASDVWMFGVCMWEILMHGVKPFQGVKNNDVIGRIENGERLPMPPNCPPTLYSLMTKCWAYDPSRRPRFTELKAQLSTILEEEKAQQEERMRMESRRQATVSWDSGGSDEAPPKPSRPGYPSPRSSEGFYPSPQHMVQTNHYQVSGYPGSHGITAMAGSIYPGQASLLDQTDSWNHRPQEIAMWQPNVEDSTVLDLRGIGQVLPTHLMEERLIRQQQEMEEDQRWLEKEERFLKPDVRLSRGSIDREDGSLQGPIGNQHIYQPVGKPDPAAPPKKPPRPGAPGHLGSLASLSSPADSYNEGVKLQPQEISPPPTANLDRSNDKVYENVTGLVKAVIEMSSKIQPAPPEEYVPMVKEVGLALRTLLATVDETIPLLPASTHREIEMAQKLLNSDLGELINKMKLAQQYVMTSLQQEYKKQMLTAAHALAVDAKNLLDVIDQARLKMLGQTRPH
- Assay Method Text: FAK-HiBiT Degradation Assay
- Format: cell-based
- Applied Conditions: JHH-4-FAK-HiBiT clone d01 cells; two hours incubation; 10-point dose response, 3-fold dilution starting at 1 μM; Nano-Glo HiBiT luminescence; read-out: FAK HiBiT EC50

The following molecules have reported results that may help.
# Molecule, DC50
measured = [
    ("CC(C)Nc1cc(-c2ncc(C#N)cc2F)c2cnn(Cc3ccc4c(c3)CN(C3CCC(=O)NC3=O)C4=O)c2n1 (stereo not drawn)", "≥ 1000 nM"),
    ("COc1cc(F)cnc1-c1cc(N2CC(F)C2)nc2c1cnn2Cc1ccc2c(c1)CN(C1CCC(=O)NC1=O)C2=O (stereo not drawn)", "≥ 1000 nM"),
]

Here is another molecule to look at.
Asked: For the molecule shown here, O=C1CCC(N2Cc3cc(Cn4ncc5c(-c6ncc(C(F)(F)F)cc6Cl)cc(N[C@H]6CCOC6)nc54)ccc3C2=O)C(=O)N1 (stereo partly drawn) , give the reported DC50.
Given back: ≥ 1000 nM
